Each entry below carries its recorded inhibition at 1 µM.
test.system: S. aureus GyrB ATPase (Staphylococcus aureus, UniProt P0A0K8)
Sequence (P0A0K8 whole entry): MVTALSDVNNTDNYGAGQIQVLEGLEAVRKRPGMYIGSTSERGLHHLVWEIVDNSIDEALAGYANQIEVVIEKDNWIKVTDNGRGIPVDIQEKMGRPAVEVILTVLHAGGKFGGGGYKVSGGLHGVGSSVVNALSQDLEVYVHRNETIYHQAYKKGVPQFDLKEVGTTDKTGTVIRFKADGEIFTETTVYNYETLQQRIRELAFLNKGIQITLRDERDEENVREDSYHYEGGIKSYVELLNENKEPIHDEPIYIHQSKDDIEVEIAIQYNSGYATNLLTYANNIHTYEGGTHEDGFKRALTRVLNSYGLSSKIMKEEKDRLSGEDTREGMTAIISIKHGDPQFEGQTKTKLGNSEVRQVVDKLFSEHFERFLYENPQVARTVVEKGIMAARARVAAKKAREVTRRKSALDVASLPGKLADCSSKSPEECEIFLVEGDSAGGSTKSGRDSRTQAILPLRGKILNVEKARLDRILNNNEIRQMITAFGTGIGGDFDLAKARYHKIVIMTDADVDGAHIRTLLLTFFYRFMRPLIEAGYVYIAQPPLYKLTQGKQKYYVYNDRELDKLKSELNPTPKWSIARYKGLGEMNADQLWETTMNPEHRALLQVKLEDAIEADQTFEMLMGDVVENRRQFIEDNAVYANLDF
Sequence (P0AES4 whole entry, further chain): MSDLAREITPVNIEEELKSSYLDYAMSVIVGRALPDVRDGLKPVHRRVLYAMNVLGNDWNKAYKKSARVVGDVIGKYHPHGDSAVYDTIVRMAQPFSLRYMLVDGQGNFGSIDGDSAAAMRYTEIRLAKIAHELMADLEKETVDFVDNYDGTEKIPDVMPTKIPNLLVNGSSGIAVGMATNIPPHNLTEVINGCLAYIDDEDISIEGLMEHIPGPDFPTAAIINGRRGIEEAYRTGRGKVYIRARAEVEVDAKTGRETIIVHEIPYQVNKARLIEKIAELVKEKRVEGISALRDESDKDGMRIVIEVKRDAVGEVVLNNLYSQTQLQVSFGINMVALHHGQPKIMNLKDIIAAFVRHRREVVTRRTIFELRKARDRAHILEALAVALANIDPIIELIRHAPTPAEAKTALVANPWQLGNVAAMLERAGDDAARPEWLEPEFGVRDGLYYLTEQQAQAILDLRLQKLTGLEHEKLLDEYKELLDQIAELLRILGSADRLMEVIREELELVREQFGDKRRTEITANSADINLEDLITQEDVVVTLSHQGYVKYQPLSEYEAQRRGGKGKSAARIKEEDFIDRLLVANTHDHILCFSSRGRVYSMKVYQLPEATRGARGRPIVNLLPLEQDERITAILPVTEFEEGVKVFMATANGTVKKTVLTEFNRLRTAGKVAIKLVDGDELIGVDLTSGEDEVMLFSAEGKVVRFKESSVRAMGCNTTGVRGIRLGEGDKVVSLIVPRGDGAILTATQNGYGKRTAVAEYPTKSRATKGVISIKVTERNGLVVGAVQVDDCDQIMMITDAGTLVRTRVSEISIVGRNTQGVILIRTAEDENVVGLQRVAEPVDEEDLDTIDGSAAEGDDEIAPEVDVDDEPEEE
assay.details: biochemical
condition.set: compound at 1 μM; one value per test if tested more than once; read-out: % Inhibition of S. aureus GyrB ATPase
metric.name: inhibition at 1 µM

1. CCNC(=O)Nc1cc(-c2nc(C(F)(F)F)cs2)c(-c2ccc3c(c2)c(=O)c(C(=O)O)cn3CC2COCCN2)cn1 (stereo not drawn) [Example 293] | 106%
2. CCNC(=O)Nc1cc(-c2nc(C(F)(F)F)cs2)c(-c2ccc3c(c2)c(=O)c(C(=O)N2CCN(S(=O)(=O)N(C)C)CC2)cn3C(COC)COC)cn1 [Example 142] | 97%
3. CC(C)NC(=O)Nc1cc(-c2nc(C(F)(F)F)cs2)c(-c2ccc3c(c2)c(=O)c(C(=O)NCCO)cn3CCC2CCN(C)CC2)cn1 [Example 216] | 109%
4. CCCn1cc(C(=O)NC)c(=O)c2ccc(-c3cnc(NC(=O)NCC)cc3-c3nc(C(F)(F)F)cs3)cc21 [Example 347] | 100%
5. CCNC(=O)Nc1cc(-c2nc(C(F)(F)F)cs2)c(-c2ccc3c(c2)c(=O)c(C(=O)O)cn3C(CO)C2CCOCC2)cn1 (stereo not drawn) [Example 80] | 96%
6. CCNC(=O)Nc1cc(-c2nc(C(F)(F)F)cs2)c(-c2ccc3c(c2)c(=O)c(C(=O)O)cn3[C@H]2CNC[C@@H]2O)cn1 (relative stereo) [Example 310] | 106%

----------
test.system: S. aureus GyrB ATPase (Staphylococcus aureus, UniProt P0A0K8)
assay.details: biochemical
condition.set: compound at 1 μM; one value per test if tested more than once; read-out: % Inhibition of S. aureus GyrB ATPase
metric.name: inhibition at 1 µM (%)

1) CCNC(=O)Nc1cc(-c2nc(C(F)(F)F)cs2)c(-c2ccc3c(=O)c(C(=O)NCCN4CCOCC4)cn(CC4CC4)c3c2)cn1 [Example 378] | 107
2) CCCNC(=O)Nc1cc(-c2nc(C(F)(F)F)cs2)c(-c2ccc3c(c2)c(=O)c(C(=O)N2CCN(C(C)=O)CC2)cn3C2CN(C)C2)cn1 [Example 168] | 102
3) CCNC(=O)Nc1cc(-c2nc(C(F)(F)F)cs2)c(-c2ccc3c(=O)c(C(=O)O)cn(CCC(C)C)c3c2)cn1 [Example 25] | 99
4) CCNC(=O)Nc1cc(-c2nc(C(F)(F)F)cs2)c(-c2ccc3c(c2)c(=O)c(C(=O)O)cn3C[C@@H]2CCCN(C)C2)cn1 [Example 247] | 115
5) CCNC(=O)Nc1cc(-c2nc(C(F)(F)F)cs2)c(-c2ccc3c(c2)c(=O)c(C(=O)O)cn3C[C@@H]2CCCO2)cn1 [Example 88] | 90
6) CCNC(=O)Nc1cc(-c2nc(C(F)(F)F)cs2)c(-c2ccc3c(=O)c(C(=O)O)cn(CCO)c3c2)cn1 [Example 30] | 95
7) CCCNC(=O)Nc1cc(-c2nc(C(F)(F)F)cs2)c(-c2ccc3c(c2)c(=O)c(C(=O)N2CCN(S(C)(=O)=O)CC2)cn3CCN(C)C)cn1 [Example 157] | 103
8) CCCNC(=O)Nc1cc(-c2nc(C(F)(F)F)cs2)c(-c2ccc3c(c2)c(=O)c(C(=O)N2CCN(C(C)=O)CC2)cn3CCN(C)C)cn1 [Example 160] | 103
9) CCNC(=O)Nc1cc(-c2nc(C(F)(F)F)cs2)c(-c2ccc3c(=O)c(C(=O)NCCN4CCN(C)CC4)cn(Cc4ccccc4)c3c2)cn1 [Example 358] | 95
10) CCNC(=O)Nc1cc(-c2nc(C(F)(F)F)cs2)c(-c2ccc3c(=O)c(C(=O)O)cn(C)c3c2)cn1 [Example 22] | 99
11) CCNC(=O)Nc1cc(-c2nc(C(F)(F)F)cs2)c(-c2ccc3c(c2)c(=O)c(C(=O)O)cn3CCN(C)C)cn1 [Example 18] | 98
12) CCNC(=O)Nc1cc(-c2nc(C(F)(F)F)cs2)c(-c2ccc3c(=O)c(C(=O)NCCO)cn(CCO)c3c2)cn1 [Example 364] | 97
13) CCNC(=O)Nc1cc(-c2nc(C(F)(F)F)cs2)c(-c2ccc3c(c2)c(=O)c(C(=O)N2CCNCC2)cn3C(COC)COC)cn1 [Example 140] | 95
14) CCNC(=O)Nc1cc(-c2nc(C(F)(F)F)cs2)c(-c2ccc3c(c2)c(=O)c(C(=O)O)cn3C2CC2)cn1 [Example 20] | 96
15) CCNC(=O)Nc1cc(-c2nc(C(F)(F)F)cs2)c(-c2ccc3c(c2)c(=O)c(C(=O)O)cn3[C@@H]2CCCN(CCO)C2)cn1 [Example 292] | 102
16) CCNC(=O)Nc1cc(-c2nc(C(F)(F)F)cs2)c(-c2ccc3c(c2)c(=O)c(C(=O)O)cn3C[C@@H]2CCCNC2)cn1 [Example 242] | 104
17) CCNC(=O)Nc1cc(-c2nc(C(F)(F)F)cs2)c(-c2ccc3c(c2)c(=O)c(C(=O)O)cn3[C@@H]2CCNC2)cn1 [Example 244] | 111
18) CCCn1cc(C(=O)O)c(=O)c2ccc(-c3cnc(NC(=O)NCC)cc3-c3nc(C(F)(F)F)cs3)cc21 [Example 27] | 99
19) CCNC(=O)Nc1cc(-c2nc(C(F)(F)F)cs2)c(-c2ccc3c(c2)c(=O)c(C(=O)O)cn3C2CCN(C)CC2)cn1 [Example 323] | 106
20) CC(C)NC(=O)Nc1cc(-c2nc(C(F)(F)F)cs2)c(-c2ccc3c(c2)c(=O)c(C(=O)O)cn3C2CCOCC2)cn1 [Example 199] | 103
21) CCNC(=O)Nc1cc(-c2nc(C(F)(F)F)cs2)c(-c2ccc3c(c2)c(=O)c(C(=O)O)cn3CC2CCCCN2)cn1 (centres unmarked) [Example 123] | 95
22) CCNC(=O)Nc1cc(-c2nc(C(F)(F)F)cs2)c(-c2ccc3c(c2)c(=O)c(C(=O)NC)cn3C(COC)COC)cn1 [Example 129] | 93
23) CCNC(=O)Nc1cc(-c2nc(C(F)(F)F)cs2)c(-c2ccc3c(=O)c(C(=O)NCCO)cn(CCOC)c3c2)cn1 [Example 370] | 98
24) CCNC(=O)Nc1cc(-c2nc(C(F)(F)F)cs2)c(-c2ccc3c(c2)c(=O)c(C(=O)O)cn3[C@@H](C)CO)cn1 [Example 71] | 107
25) CCNC(=O)Nc1cc(-c2nc(C(F)(F)F)cs2)c(-c2ccc3c(c2)c(=O)c(C(=O)NC)cn3[C@H](CO)CC(C)C)cn1 [Example 96] | 95
26) CCCNC(=O)Nc1cc(-c2nc(C(F)(F)F)cs2)c(-c2ccc3c(c2)c(=O)c(C(=O)NCCO)cn3CCOC)cn1 [Example 207] | 93

FYI, the data here is from patent US8283361B2.
